molecular target: DRAK2 (Homo sapiens (Human)); assay: DRAK2 kinase activity inhibition (ADP-Glo, MRCL3 peptide substrate); type: biochemical; conditions: Table 5; Experimental Example 3, according to the number of n
Sequence (O94768 whole entry): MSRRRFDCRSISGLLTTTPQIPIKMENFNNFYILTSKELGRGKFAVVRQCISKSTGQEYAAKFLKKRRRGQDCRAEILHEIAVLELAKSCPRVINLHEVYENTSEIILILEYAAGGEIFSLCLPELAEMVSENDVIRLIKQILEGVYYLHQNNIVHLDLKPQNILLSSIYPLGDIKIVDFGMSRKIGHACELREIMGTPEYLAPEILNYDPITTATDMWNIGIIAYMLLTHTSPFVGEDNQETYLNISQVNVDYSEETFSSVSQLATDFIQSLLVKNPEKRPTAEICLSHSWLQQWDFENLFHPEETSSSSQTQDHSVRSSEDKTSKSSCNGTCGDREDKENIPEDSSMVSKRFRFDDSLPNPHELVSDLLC
// assign MET if IC50 falls strictly below 30 nM, else NOT MET (ties count as NOT MET)

Before answering, review these 4 worked examples.
{"columns": ["COMPOUND", "GROUP LABEL"],
 "data": [
  ["NCCNc1nc(Nc2ccc(Cl)cc2)ncc1Cl [Comparative Example 7, reference compound]", "NOT MET"],
  ["Cc1cnc(Nc2ccc(Cl)cc2)nc1NCCN [Comparative Example 8, reference compound]", "NOT MET"],
  ["NCCCCNc1nc(Nc2ccc(Cl)cc2)ncc1Cl", "NOT MET"],
  ["Cc1cnc(Nc2ccc(Cl)cc2)nc1NCCCN", "MET"]
]}

Prompt: Please indicate whether the reported IC50 of `NCCCNc1nc(Nc2ccc(Cl)cc2)ncc1Cl` is strictly below 30 nM.
Completion: NOT MET
